- Tested on: SF-539
- assay-info: NCI tumour cell line growth inhibition, 48 h
The source made the active and inactive calls. Rule as the data show it: active = GI50 up to about 1.1 µM and inactive = higher.
Record form. Attribute: GI50. Fill in for each entry.

Recorded GI50 of Cc1n[nH]/c(=N\S(=O)(=O)c2ccc(/N=N/c3c(O)c(C(=O)O)cc4ccccc34)cc2)s1 , please. > 100 µM (inactive)

Now this one: CCSc1nc(N/N=C/c2cccs2)c2cnn(CO)c2n1 10.5 µM (inactive)

Follow-up item: CN(c1ccc(Cl)cc1)S(=O)(=O)c1ccccc1 43 µM (inactive)

# iterate: O=C(c1cc2c(c3ccccc13)NCCN=C2C(F)(F)F)C(F)(F)F 20.1 µM (inactive)

Quick one: O=S(=O)(N/N=C/c1ccc(/C=N/NS(=O)(=O)c2ccccc2)cc1)c1ccccc1 29 µM (inactive)

###

- Tested on: MOLT-4
- assay-info: NCI tumour cell line growth inhibition, 48 h
Calls of active or inactive are those of the source. No stated cut-off is given here; in the data, active = GI50 up to about 1.1 µM and inactive = higher.
endpoint: GI50

Fill blank: measured GI50 of the compound O=[N+]([O-])c1cc2oc(COc3ccccc3)nc2cc1Cl is ____. 22.2 µM (inactive)

Next up: O=C1Sc2ccccc2/C1=N/Nc1ccccc1[N+](=O)[O-] > 100 µM (inactive)

Also CC1=NN(C(=O)Cc2ccccc2)C(=O)/C1=C\c1ccccc1O , if possible. > 100 µM (inactive)

What about this compound? O=C(Nc1cccc(O)c1)C(=O)C(C(=O)c1ccccc1F)C1OC(=O)c2ccccc21 (stereo unspecified) 28.6 µM (inactive)

Next: Cc1ccc2c(c1)C(=O)/C(=C\c1ccccc1)CCS2(=O)=O 4.54 µM (inactive)

Next entry: Nn1c(S)nnc1-c1ccccc1Nc1ccccc1-c1nnc(S)n1N > 50 µM (inactive)

###

- Test system: 786-0
- assay-info: NCI tumour cell line growth inhibition, 48 h
Activity calls are given as the source filed them. No stated cut-off is given here; in the data, active = GI50 up to about 1.1 µM and inactive = higher.
endpoint: GI50

Param item = COC1(CCO)CC=CCC1(CCO)OC (stereo not given) ; retrieve measured GI50. > 100 µM (inactive)

Now the same for COC(=O)C(=O)C(C(C)=O)C(=O)NCc1ccc(OC)c(OC)c1 (stereo not given) > 100 µM (inactive)

Can you handle CCOC(=O)/C=C(\C(=O)OCC)n1cc(C)c(=O)n(Cc2cn(CCCCOC(C)=O)nn2)c1=O next? 4.43 µM (inactive)

How about this molecule: CC1(C)OC2OC(COC(=O)c3ccc(C#N)cc3)C3OC(C)(C)OC3C2O1 (stereo not given) > 75 µM (inactive)

Then this molecule: C=C1C(=O)OC2CC(C)C3(O)CCC(=O)C3(C)CC12 (stereo not given) 21.3 µM (inactive)

Moving on to O=C(O)CCC[C@]1(O)O[C@@]2(CCCC2=O)[C@]2(O)CCC[C@@]21O > 100 µM (inactive)

Moving on to COc1ccc(C2Oc3c(c(O)cc4c3[C@H](c3ccc(O)cc3O)[C@H](O)C(c3ccc(O)c(O)c3)O4)C[C@@H]2O)cc1O (stereo not given in full) > 100 µM (inactive)

Then this molecule: CN(C)c1ccc(C(=NN)c2ccc(N(C)C)cc2)cc1 4.8 µM (inactive)

Next: CCC(=O)C(C)C(=O)C(=O)C(=O)OC (stereo not given) > 100 µM (inactive)

Another: COc1ccc(/N=C/N(C)C)c(C)c1 13.6 µM (inactive)

Here is the next molecule: CCOc1nc(N)nc(C)c1/N=N/c1ccc(Cl)cc1 > 100 µM (inactive)

Try O=CN1CCN(CC(O)CN2CCCCC2)CC1 (stereo not given) next. > 100 µM (inactive)

Okay, and C=CC[C@@H](N)C(=O)N(C)[C@@H](C)[C@@H](O)c1ccccc1 ? > 100 µM (inactive)

What do we get for CC1(C)N=C(N)N=C(N)N1c1ccc(OCC(=O)Nc2cccc(S(=O)(=O)F)c2)c(Cl)c1 ? 4.9 µM (inactive)

Please give the result for Clc1ccc2nc3[nH]nc(Cl)c3nc2c1 too. 61.5 µM (inactive)

Same read-out for Cc1cccc(NC(=O)CCl)c1 ? 3.67 µM (inactive)

Further, for CC1(C)OC(=O)C(C)(C)C(=O)O1 ? > 100 µM (inactive)

Same question for O=C(c1cc2c(c3ccccc13)NCCN=C2C(F)(F)F)C(F)(F)F please. 20.8 µM (inactive)

Moving on to CC1(C)O[C@@H](C[C@]2(C#N)C[C@H](CCl)OC(C)(C)O2)C[C@@H](C#N)O1 > 100 µM (inactive)

Also need COC(=O)CCSC(=O)Nc1ccc(/N=N/c2ccccc2)cc1 , thanks. 57.7 µM (inactive)

Next up: CC1(C)C(=O)C(C)(C)C1=S > 100 µM (inactive)

Cool, now CC1=NC=C(O)c2ccccc2O1 > 100 µM (inactive)

Entry to check: Cn1c2ccccc2c2c3c(c4c5ccccc5n(C)c4c21)C(=O)N(c1ccccc1)C3=O > 100 µM (inactive)

Try CC(=O)NC1C(OCC(=O)NCCNc2ccc([N+](=O)[O-])c3[nH]c4ccccc4c(=O)c23)C(O)C(CO)OC1(C)OCc1ccccc1 (stereo not given) next. > 100 µM (inactive)

Would you kindly repeat that for COC1=CC(=O)N(C)C(O)C1(C#N)OC1OC(CO)C(O)C(O)C1O (stereo not given) ? > 100 µM (inactive)

What would you report for CCOC(=O)c1c(NC(=O)OC)c(C#N)c2n1CCCCC2 ? > 100 µM (inactive)

Can you check C[C@@H]1CC[C@@]2(NC1)O[C@H]1C[C@H]3[C@@H]4CC[C@H]5C[C@@H](O)CC[C@]5(C)[C@H]4CC[C@]3(C)[C@H]1[C@@H]2C next? 31.6 µM (inactive)

Try the molecule CN(c1ccc(Cl)cc1)S(=O)(=O)c1ccccc1 > 100 µM (inactive)

Also check OC1[C@H](O)CN(OCc2ccccc2)C[C@@H]1O (stereo not given in full) > 100 µM (inactive)

Also, N#Cc1c(-c2ccc(Cl)cc2)[nH]c(=O)n(C2OC(CO)C(O)C(O)C2O)c1=O (stereo not given) please. > 100 µM (inactive)

// same read-out, input: CC1=NN(C(=O)Cc2ccccc2)C(=O)/C1=C\c1ccccc1O > 100 µM (inactive)

And then CCCCc1ccc(C#CC#Cc2ccc(CCCC)s2)s1 , what is it? > 100 µM (inactive)

Entry COC(=O)C1=C(O)C(C(=O)OC)[C@]2(O)[C@@H](C(=O)OC)[C@H]1[C@H](C)[C@@H](c1ccccc1)[C@@H]2C(=O)OC (stereo not given in full) please 62.2 µM (inactive)

Note, next up: OC(c1cc2ccccc2o1)c1cc2ccccc2s1 (stereo not given) > 10 µM (inactive)

Same for CC(C)CNP(=O)(NCC(C)C)Oc1ccc(CC(NC(=O)OCc2ccccc2)C(=O)OCc2ccccc2)cc1 (stereo not given) 13.6 µM (inactive)

###

Consider the following compounds; for each one, report its GI50.
- Tested on: OVCAR-3
- assay-info: NCI tumour cell line growth inhibition, 48 h
Calls of active or inactive are those of the source. Cut-off read from the data, not from the text of the source: active = GI50 up to about 1.1 µM and inactive = higher.

Fill in the blank: the reported GI50 of Cc1cn(CC2(CO)CCC2)c(=O)[nH]c1=O is ____. > 100 µM (inactive)

Also need CCOC(=O)CNC(=O)C(CSC(=O)N(O)c1ccc(Cl)cc1)NC(=O)CCC(N)C(=O)OCC (stereo not given) , thanks. > 50 µM (inactive)

# iterate: CC1(C)OC2OC(COC(=O)c3ccc(C#N)cc3)C3OC(C)(C)OC3C2O1 (stereo not given) > 75 µM (inactive)

Also CC(=O)NC1C(OCc2ccccc2)OC(CO)C(O)C1OCC(=O)NC(C(=O)NC(CCC(=O)NCCCCCC(=O)Nc1ccc2c(c1)CN1C(=O)c3ccccc3C1=N2)C(N)=O)C(C)C (stereo not given) , if possible. 67.6 µM (inactive)

// next record Clc1ccc(COC(Cn2ccnc2)c2ccc(Cl)cc2Cl)cc1 (stereo not given) 10.9 µM (inactive)

Query CC(C)c1ccccc1[S+]([O-])c1ccccc1C(C)(C)O (stereo not given) next > 100 µM (inactive)

Likewise for CNc1ccc2c(c1)Cc1ccccc1-2 ? 26.8 µM (inactive)

Please give the result for Brc1ccc(/N=N/N2CCCC2)cc1 too. 81.5 µM (inactive)

Now consider CC(=O)O[C@H]1CC[C@@]2(C)C(=CC[C@@H]3C2CC[C@]2(C)Nc4[nH]ncc4CC32)C1 (stereo not given in full) and answer again. 19.2 µM (inactive)

Query O=C1NC2(CCCCC2)N=C2C(Cl)CCCC12Cl (stereo not given) next > 100 µM (inactive)

###

- Tested on: HL-60
- assay-info: NCI tumour cell line growth inhibition, 48 h
The source made the active and inactive calls. No stated cut-off is given here; in the data, active = GI50 up to about 1.1 µM and inactive = higher.
One label from this list, please: active, inactive

Test call for this compound, please: CN(CCCNC(=O)c1nn(-c2ccccc2)c2c1Cc1ccccc1-2)CCCNC(=O)c1nn(-c2ccccc2)c2c1Cc1ccccc1-2 active

Would you mind doing CC(=O)OC[C@@H]1[C@H]2CC[C@]3(C)[C@@H](OC(C)=O)CC[C@H]3[C@@H]2CC[C@H]1C1(C)SCCS1 as well? inactive

What do you have for COC1C(OC(=O)/C=C/C=C/C=C/C=C/C(=O)O)CCC2(CO2)C1C1(C)OC1CC=C(C)C (stereo not drawn) ? inactive

Do the same for CC1(C)COP(=S)(c2ccccn2)O[C@@H]1c1ccccc1 (stereo partly drawn) please inactive

Next entry: COc1c2occc2cc2ccc(=O)oc12 [METHOXSALEN] inactive

Proceed to COc1c(Br)cc(/C=C(\C#N)c2cccnc2)cc1Br inactive

Param item: CC(=O)OCC(=O)[C@@]12OC(C)(C)O[C@@H]1C[C@H]1[C@@H]3CC=C4C[C@@H](O)CC[C@]4(C)[C@H]3CC[C@@]12C inactive

Do the same for COC1=CC(=O)c2c(O)c3c(c(O)c2C1=O)CC(C)(O)OC3 (stereo not drawn) [FUSARUBIN] please inactive
